Molecular target: Aedes albopictus
Test: Evaluation of the repellent and/or attractant effect in a tunnel olfactometer
Format: in vivo
Settings: dose 10 mg/ml; negative = attractant
Provide the reported KI (%) kairomone index of each item.
Answers are plain numbers, in %.

In: Name the recorded KI (%) kairomone index of the compound listed here: CCC[C@H](C)Oc1ccc2c(=O)ccoc2c1 [S-(+)-sec-pentoxychromone]
Out: −18.2

In: Look up KI (%) kairomone index of CCCC(C)Oc1ccc2c(=O)ccoc2c1 (racemic) and report it.
Out: −47.9

In: Given CCCCCCCC(C)Oc1ccc2c(=O)ccoc2c1 (racemic) , respond with its KI (%) kairomone index.
Out: −63.6

// next item, KI (%) kairomone index requested
In: Annotate the compound "CCCCCCCCCCOc1ccc2c(=O)ccoc2c1" with its measured KI (%) kairomone index.
Out: −37.8
